# TARGET SYSTEM: T1, rat α-CGRP (1-37) (rat, C-terminal amide; N-terminal biotin when captured on the SA chip)
# T1 construct: also called rat α (1-37); α-rat
# T1 peptide: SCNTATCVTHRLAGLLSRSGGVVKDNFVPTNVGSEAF
# EXPERIMENT DESCRIPTION: Biacore, 37°C, Fab over CGRP on SA chip
// assign 1 if koff falls strictly below 0.004 s⁻¹, else -1 (ties count as -1)

Check out these entries, answers already filled in.
BINDER	CATEGORY LABEL
G1 variant M74 Fab (Fab, V domains shown, Fab; constant domains as m1) VH: EVQLVESGGGLVQPGGSLRLSCAASGFTFSNYWISWVRQAPGKGLEWVAEIRSKSDSSATHYAEAVKGRFTISRDNAKNSLYLQMNSLRAEDTAVYYCTVYFDYGLAIQNYWGQGTLVTVSS VL: EIVLTQSPATLSLSPGERATLSCKASKNVGTYVSWYQQKPGQAPRLLIYGASNRYSGIPARFSGSGSGTDFTLTISSLEPEDFAVYYCSQSYNYPYTFGQGTKLEIK	-1
G1 variant M1 Fab (Fab, V domains shown, Fab; constant domains as m1) VH: EVQLVESGGGLVQPGGSLRLSCAASGFTFSNYWISWVRQAPGKGLEWVAEIRSESDASATHYAEAVKGRFTISRDNAKNSLYLQMNSLRAEDTAVYYCLLYFDYGLAIQNYWGQGTLVTVSS VL: EIVLTQSPATLSLSPGERATLSCKASKRVTTYVSWYQQKPGQAPRLLIYGASNRYLGIPARFSGSGSGTDFTLTISSLEPEDFAVYYCSQSYNYPYTFGQGTKLEIK	1
G1 variant M53 Fab (Fab, V domains shown, Fab; constant domains as m1; printed L561 read as L56I) VH: EVQLVESGGGLVQPGGSLRLSCAASGFTFSNYWISWVRQAPGKGLEWVAEIRSKSDNGATHYAEAVKGRFTISRDNAKNSLYLQMNSLRAEDTAVYYCTVYFDYGLAIQNYWGQGTLVTVSS VL: EIVLTQSPATLSLSPGERATLSCKASKNVTTYVSWYQQKPGQAPRLLIYGASNRYIGIPARFSGSGSGTDFTLTISSLEPEDFAVYYCSQSYNYPYTFGQGTKLEIK	1

Next up:
In: Quick check: does G1 variant M69 Fab (Fab, V domains shown, Fab; constant domains as m1; printed L561 read as L56I) VH: EVQLVESGGGLVQPGGSLRLSCAASGFTFSNYWISWVRQAPGKGLEWVAEIRSKSDNEATHYAEAVKGRFTISRDNAKNSLYLQMNSLRAEDTAVYYCTVYFDYGLAIQNYWGQGTLVTVSS VL: EIVLTQSPATLSLSPGERATLSCKASKNVGTYVSWYQQKPGQAPRLLIYGASNRYIGIPARFSGSGSGTDFTLTISSLEPEDFAVYYCSQSYNYPYTFGQGTKLEIK have koff under 0.004 s⁻¹?
Out: 1
